System: rodent lifetime carcinogenesis bioassay, tumor incidence TD50
Test: carcinogenic potency in animals, long-term in vivo studies, CPDB compilation (AID 1745844)
Details: rat; strain Sprague-Dawley; females; i.p.; site: mammary gland; lesion: fibroadenoma; dosed 52 weeks; study length 80 weeks
measure.name: TD50

Query: Need TD50 of COc1cc2c(c3c1c(=O)c1ccccc1n3C)C=CC(C)(C)O2 , thanks.
Response: 0.455 mg/kg/day

====

System: rodent lifetime carcinogenesis bioassay, tumor incidence TD50
Assay: carcinogenic potency in animals, long-term in vivo studies, CPDB compilation (AID 1745844)
Settings: rat; strain Charles River CD (Sprague-Dawley); males; in feed; site: all sites; lesion: granulocytic leukemia; dosed 69 weeks; study length 69 weeks
measure.name: TD50

Query: For rodent lifetime carcinogenesis bioassay, tumor incidence TD50, provide TD50 of Nc1ccc(-c2ccc(N)c(Cl)c2)cc1Cl please.
Response: 66.2 mg/kg/day
